- TGT: D(2) dopamine receptor (Homo sapiens) (UniProt P14416)
- Sequence (P14416 whole entry): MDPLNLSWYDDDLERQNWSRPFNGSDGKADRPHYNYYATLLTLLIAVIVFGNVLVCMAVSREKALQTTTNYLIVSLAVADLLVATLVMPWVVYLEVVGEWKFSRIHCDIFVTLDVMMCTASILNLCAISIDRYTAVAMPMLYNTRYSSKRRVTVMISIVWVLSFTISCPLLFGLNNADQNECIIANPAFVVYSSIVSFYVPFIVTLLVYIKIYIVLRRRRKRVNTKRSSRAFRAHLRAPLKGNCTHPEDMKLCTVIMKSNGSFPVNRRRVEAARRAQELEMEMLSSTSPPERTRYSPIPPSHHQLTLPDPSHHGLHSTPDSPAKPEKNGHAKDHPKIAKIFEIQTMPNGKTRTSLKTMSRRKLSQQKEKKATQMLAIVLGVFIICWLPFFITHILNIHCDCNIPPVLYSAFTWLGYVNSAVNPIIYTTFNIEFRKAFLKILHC
- STUDY CONDITIONS: Compound concentration 10 µM
- Description: PDSP Primary Binding target: DRD2 - Compounds are tested at 10 uM concentration, plate are incubated at room temperature in the dark for 90 minutes. Reaction are stopped by vacuum filtration onto 0.3% polyethyleneimine soaked filter mats using Filtermate harvester. Scintilation cocktail is then melted onto microwave-dried filters on a hot plate and the radio activity is counted in Microbia counter.
# inhibition per entry
State just the number; it will be interpreted in %.

Cc1cc(C)cc(-c2cnc3cc(Cl)c(-c4cccc(O)c4)cc3c2OCCCN)c1    37.3

Query string: Quick check: inhibition of OCc1cc(C(O)CNCCCCCCOCCCCc2ccccc2)ccc1O (centres undefined) ?
Result string: 10.9

Query string: Quick check: inhibition of CC(C)NC(=O)c1ccc(C#Cc2ccncc2)cn1 ?
Result string: -3.71

Query string: Quick one: inhibition of COC(=O)[C@H]1[C@H]2C[C@H]3c4[nH]c5ccccc5c4CCN3C[C@H]2CC[C@@H]1O ?
Result string: 49.4

---

- TGT: Beta-3 adrenergic receptor (Homo sapiens)
- STUDY CONDITIONS: Compound concentration 10 µM
- Description: PDSP Primary Binding target: ADRB3 - Compounds are tested at 10 uM concentration, plate are incubated at room temperature in the dark for 90 minutes. Reaction are stopped by vacuum filtration onto 0.3% polyethyleneimine soaked filter mats using Filtermate harvester. Scintilation cocktail is then melted onto microwave-dried filters on a hot plate and the radio activity is counted in Microbia counter.
QUANTITY NAME: inhibition (%)
Could you give me the number in %? Just the number is fine.

Consider the following illustrative entries.
COC1CCN(c2cccc(-c3cc(NC(C)=O)nc(-n4nc(C)cc4C)n3)n2)CC1    22.6
Cc1c(P(=S)(c2ccccc2)c2ccccc2)n2ccccc2[n+]1C/C=C/c1ccccc1    68.2
CCCCCCCCCCCCCCCCOC[C@H](COP(=O)([O-])OCC[N+](C)(C)C)OC(C)=O    28.1
CC(C)(N)C(=O)N[C@H](COCc1ccccc1)C(=O)N1CCC2(CC1)CN(S(C)(=O)=O)c1ccccc12    15.2
COc1ccc(S(=O)(=O)c2cc(OC)ccc2S(=O)(=O)c2ccc([C@H](C)NS(C)(=O)=O)cc2)cc1    1.41
Cc1cc(C)cc(-c2cnc3cc(Cl)c(-c4cccc(O)c4)cc3c2OCCCN)c1    99.4

Query string: # lookup: inhibition of CCCCCNC(=N)N/N=C/c1c[nH]c2ccc(OC)cc12
Result string: 89.7

Query string: Would you mind telling me what inhibition value was observed for c1ccc(N2CCN(Cc3nc4ccccc4[nH]3)CC2)nc1 ?
Result string: 17.4

Query string: Find the recorded inhibition belonging to Clc1ccc(CCCOCCCN2CCCCC2)cc1 and report it.
Result string: 1.84

Query string: # lookup: inhibition of COc1cccc([C@@H](C)NCCCc2ccccc2Cl)c1
Result string: 50.2

---

- TGT: 5-hydroxytryptamine receptor 1A (Homo sapiens) (UniProt P08908)
- Sequence (P08908 whole entry): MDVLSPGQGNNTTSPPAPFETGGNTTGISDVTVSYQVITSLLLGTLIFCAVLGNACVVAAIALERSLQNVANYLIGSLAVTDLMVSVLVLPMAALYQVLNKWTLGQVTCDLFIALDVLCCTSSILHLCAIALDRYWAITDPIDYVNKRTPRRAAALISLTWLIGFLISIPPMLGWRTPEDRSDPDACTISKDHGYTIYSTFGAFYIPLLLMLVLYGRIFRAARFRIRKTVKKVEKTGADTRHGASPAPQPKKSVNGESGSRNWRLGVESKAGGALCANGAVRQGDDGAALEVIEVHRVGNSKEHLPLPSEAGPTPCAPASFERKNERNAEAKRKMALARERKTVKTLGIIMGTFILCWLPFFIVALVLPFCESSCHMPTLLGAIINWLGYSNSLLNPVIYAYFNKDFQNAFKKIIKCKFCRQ
- STUDY CONDITIONS: Compound concentration 10 µM; call rule not given here
Mark one answer only. Choices: true (1) = active, false (0) = inactive

Below are worked cases with known answers.
C[C@H](CO)Nc1nc(SCc2cccc(Cl)c2F)nc2[nH]c(=O)sc12    false (0)
Nc1nc2c(c(N3CCNCC3)n1)CCC1=C2[C@@H]2CCCC[C@@H]2O1    false (0)
CNC[C@H](O)c1ccc(O)c(O)c1    false (0)
Clc1cccc(COc2cncc(N3CCNCC3)n2)c1    true (1)
COc1ccccc1N1CCN(CCCCNC(=O)c2ccc3ccccc3c2)CC1    true (1)

Consider the additional compound presented here.
Query string: # lookup: test call for Cc1c(C2=CCN(C(=O)N(C)C(C)C)CC2)nnn1-c1cccnc1F
Result string: false (0)

---

- TGT: Alpha-2C adrenergic receptor (Homo sapiens) (UniProt P18825)
- Sequence (P18825 whole entry): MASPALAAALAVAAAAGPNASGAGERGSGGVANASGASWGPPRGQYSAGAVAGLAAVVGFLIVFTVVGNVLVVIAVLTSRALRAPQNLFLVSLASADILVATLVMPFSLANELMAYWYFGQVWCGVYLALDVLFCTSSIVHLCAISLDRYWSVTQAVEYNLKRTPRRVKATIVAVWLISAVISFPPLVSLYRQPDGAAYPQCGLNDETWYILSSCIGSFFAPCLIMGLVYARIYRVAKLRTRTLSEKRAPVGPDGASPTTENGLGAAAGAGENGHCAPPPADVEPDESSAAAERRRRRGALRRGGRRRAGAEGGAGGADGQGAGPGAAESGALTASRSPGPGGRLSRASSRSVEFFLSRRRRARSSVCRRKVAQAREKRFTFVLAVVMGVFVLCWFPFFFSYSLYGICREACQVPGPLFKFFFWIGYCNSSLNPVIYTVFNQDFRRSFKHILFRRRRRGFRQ
- STUDY CONDITIONS: Compound concentration 10 µM
- Description: PDSP Primary Binding target: ADRA2C - Compounds are tested at 10 uM concentration, plate are incubated at room temperature in the dark for 90 minutes. Reaction are stopped by vacuum filtration onto 0.3% polyethyleneimine soaked filter mats using Filtermate harvester. Scintilation cocktail is then melted onto microwave-dried filters on a hot plate and the radio activity is counted in Microbia counter.
QUANTITY NAME: inhibition (%)
Reply with just the number (in %).

Reference set (9 entries):
FC(F)(F)c1cccc(-c2noc(-c3cc(-c4ccccc4)c(C(F)(F)F)s3)n2)c1    -0.68
CCCCCCCCCCCCCCCCOC[C@H](COP(=O)([O-])OCC[N+](C)(C)C)OC(C)=O    3.24
Nc1nc2c(c(N3CCNCC3)n1)CCC1=C2[C@@H]2CCCC[C@@H]2O1    30.6
c1cc(CN2CCCNCCNCCCNCC2)ccc1CN1CCCNCCNCCCNCC1    66.3
O=c1ccn([C@@H]2O[C@H](COP(=O)(O)OP(=O)(O)OP(=O)(O)O)[C@@H](O)[C@H]2O)c(=O)[nH]1    6.85
c1nc(CC2CCNCC2)c[nH]1    -1.91
Cc1nc(C#Cc2ccnc(Cl)c2)c(C)n1-c1ccc(OC(F)(F)F)cc1    -5.37
Cc1nn(C)c(C)c1-c1cccc2c1CC[C@H](N(C)C)C2    45.4
O=C(O)COc1cccc(CN(Cc2ccc(-n3cccn3)cc2)S(=O)(=O)c2cccnc2)c1    -2.57

Kindly consider the entry below.
Query string: Provide value of inhibition for this record tested with Alpha-2C adrenergic receptor (Homo sapiens) (UniProt P18825): Cc1c(P(=S)(c2ccccc2)c2ccccc2)n2ccccc2[n+]1C/C=C/c1ccccc1
Result string: 101

---

Reported values of inhibition for individual entries
- TGT: Sigma intracellular receptor 2 (Homo sapiens)
- STUDY CONDITIONS: Compound concentration 10 µM
- Description: PDSP Primary Binding target: TMEM97 - Compounds are tested at 10 uM concentration, plate are incubated at room temperature in the dark for 90 minutes. Reaction are stopped by vacuum filtration onto 0.3% polyethyleneimine soaked filter mats using Filtermate harvester. Scintilation cocktail is then melted onto microwave-dried filters on a hot plate and the radio activity is counted in Microbia counter.

Study these solved cases before continuing.
Cc1c(P(=S)(c2ccccc2)c2ccccc2)n2ccccc2[n+]1C/C=C/c1ccccc1    88%
CCC(=O)NCC[C@@H]1CCc2ccc3c(c21)CCO3    47.4%
CN1CCC(C(=O)c2cccc(NC(=O)c3c(F)cc(F)cc3F)n2)CC1    91%
Cc1cc(C(=O)N2Cc3cnn(C)c3Nc3ccccc32)ccc1CNC(=O)N1CCC[C@H]1C(=S)N1CCCN(C)CC1    -1.48%
CC(C)(N)C(=O)N[C@H](COCc1ccccc1)C(=O)N1CCC2(CC1)CN(S(C)(=O)=O)c1ccccc12    21.1%

Query string: Requested field: inhibition. Item: CN1C(=O)[C@@H](NC(=O)c2cc3ccccc3[nH]2)N=C(c2ccccc2)c2ccccc21
Result string: 8.74%

Query string: Which inhibition value belongs to C[C@@H](NCCCc1cccc(C(F)(F)F)c1)c1cccc2ccccc12 ?
Result string: 95.5%

Query string: Tell me the measured inhibition of COc1ccccc1CN[C@H]1C2CCN(CC2)[C@H]1C(c1ccccc1)c1ccccc1 , please.
Result string: 62.5%

Query string: Param item = O=C(O)c1n[nH]c2c1C[C@H]1C[C@@H]21 ; retrieve measured inhibition.
Result string: 11.9%

Query string: Return reported inhibition; argument: Cc1csc2c(N[C@@H](C)CN3CCN(S(=O)(=O)c4ccc(Cl)c(Cl)c4)CC3)ncnc12
Result string: 73.2%

---

Reported inhibition values follow for various compounds
- TGT: UniProt:P46098
- Sequence (P46098 whole entry): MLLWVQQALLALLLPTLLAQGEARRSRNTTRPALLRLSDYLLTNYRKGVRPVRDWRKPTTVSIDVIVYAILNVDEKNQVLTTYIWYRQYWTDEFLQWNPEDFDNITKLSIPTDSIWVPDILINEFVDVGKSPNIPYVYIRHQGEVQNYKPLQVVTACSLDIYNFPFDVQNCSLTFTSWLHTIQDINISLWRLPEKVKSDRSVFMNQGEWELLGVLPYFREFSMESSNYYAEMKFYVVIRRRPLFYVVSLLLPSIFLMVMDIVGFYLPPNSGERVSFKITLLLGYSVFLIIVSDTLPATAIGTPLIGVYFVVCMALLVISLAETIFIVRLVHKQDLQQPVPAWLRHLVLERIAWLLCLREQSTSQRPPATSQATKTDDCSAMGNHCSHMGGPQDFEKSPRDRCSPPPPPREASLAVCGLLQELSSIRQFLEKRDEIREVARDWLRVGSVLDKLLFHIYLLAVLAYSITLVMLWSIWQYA
- STUDY CONDITIONS: Compound concentration 10 µM
- Description: PDSP Primary Binding target: HTR3A - Compounds are tested at 10 uM concentration, plate are incubated at room temperature in the dark for 90 minutes. Reaction are stopped by vacuum filtration onto 0.3% polyethyleneimine soaked filter mats using Filtermate harvester. Scintilation cocktail is then melted onto microwave-dried filters on a hot plate and the radio activity is counted in Microbia counter.
The figure you give is taken to be in %; do not add the unit.

COc1cccc([C@@H](C)NCCCc2ccccc2Cl)c1    -2.74
OC1(c2ccc(Cl)cc2)CCN(Cc2c[nH]c3ccccc23)CC1    -7.87
O=C(Nc1ccc(Cl)cc1)Nc1cccc(-c2cccc(N3CCCC3)n2)c1    -5.81
COc1ccc(S(=O)(=O)N2c3ccc(Cl)cc3[C@](O)(c3ccccc3Cl)[C@@H]2C(=O)N2CCC[C@H]2C(N)=O)cc1OC    -3.87
CCOC(=O)c1c(C)[nH]c2ccc3c(c12)CN1CCc2cc(OC)ccc2C1O3 (stereo unspecified)    75.4
CCCCCCCCCCCCC/C=C/[C@@H](O)[C@@H](N)COP(=O)(O)O    -1.93
CN1CCCC(n2nc(Cc3ccc(Cl)cc3)c3ccccc3c2=O)CC1 (stereo unspecified)    96.4
CC(C)NCC(O)COc1cccc2ccccc12 (stereo unspecified)    8.73
C[N+]1(C)[C@@H]2C[C@@H](OC(=O)C(O)(c3cccs3)c3cccs3)C[C@H]1[C@@H]1O[C@@H]12    14.3
CCc1nn(CCCN2CCN(c3cccc(Cl)c3)CC2)c(=O)n1CCOc1ccccc1    3.68

Query string: Provide value of inhibition for this record tested with UniProt:P46098: COc1cccc([C@H](O)C2CCN(CCc3ccc(F)cc3)CC2)c1OC
Result string: 9.53

Query string: Can you look up inhibition on UniProt:P46098 for CCCn1c(=O)c2nc(C34CC5CC(CC3C5)C4)[nH]c2n(CCC)c1=O ?
Result string: -9.26

Query string: Form entry - test system: UniProt:P46098; read-out: inhibition; compound: CCN(CC)CCCCC1CCN(CC(=O)N2c3ccccc3C(=O)Nc3cccnc32)CC1
Result string: 3.5

Query string: Under UniProt:P46098: inhibition value of CNC[C@H](O)c1cccc(O)c1 ?
Result string: 0.2

Query string: I'm curious: which inhibition was measured for Cc1cc(NC(=O)Nc2ccc(N(C)C)cc2)c2cc(F)cc(F)c2n1 tested on UniProt:P46098?
Result string: 7.73

Query string: # value lookup — system UniProt:P46098, readout inhibition, item OC[C@H]1O[C@@H](n2cnc3c(NC4CCCC4)ncnc32)[C@H](O)[C@@H]1O
Result string: 3.29

Query string: Notebook entry, UniProt:P46098 assay: inhibition of N#Cc1c[nH]c2c(C(=O)N3CCN(CCc4ccc(F)cc4)CC3)cccc12 = ?
Result string: -8.41

Query string: Lookup: inhibition / UniProt:P46098 / Cc1nc2sccn2c(=O)c1CCN1CCC(=C(c2ccc(F)cc2)c2ccc(F)cc2)CC1
Result string: 4.51

Query string: Return inhibition measured with UniProt:P46098 given this compound: CS(=O)(=O)NC[C@H]1CC[C@H](Nc2nc3c(s2)CCSc2ccccc2-3)CC1
Result string: 0.88

Query string: Kindly state the measured inhibition obtained for CN1C2CCC1CC(OC(c1ccc(F)cc1)c1ccc(F)cc1)C2 (stereo unspecified) with UniProt:P46098.
Result string: 79.5

Query string: Find inhibition (UniProt:P46098) for the entry CCCCN1CCC(COC(=O)c2cc(Cl)c(N)c3c2OCCO3)CC1
Result string: 72.4
